# Tested on: 786-0 renal
# method-notes: NCI tumour cell line growth inhibition, 48 h
Please go through the items and note down their TGI.

Entry "C[P+](C)(CC(F)(F)F)c1ccccc1" , system 786-0 renal: what TGI was measured? > 100 µM

How about CC(C)=CCC/C(C)=C/CCC1(C)C2COC(=O)C21 (stereo unspecified) ? > 100 µM

How about CC(CN(C)C)C(O)(c1ccccc1)c1ccccc1 (stereo unspecified) ? > 100 µM

How about "CC(C)(C)c1ccc(C(O)(c2ccc(C(C)(C)C)cc2)c2ccc(C(C)(C)C)cc2)cc1" ? > 100 µM

How about "COC(=N)/C(=C1\OC(N)=C(c2ccc(Cl)cc2)C1=O)c1ccc(Cl)cc1" ? > 100 µM

How about N#CC(/C(=N\NC(N)=S)C(=O)NC1C2CC3CC(C2)CC1C3)c1ccc(Cl)cc1 (stereo unspecified) ? > 100 µM

How about "CN(C)/C(=N/C(=O)Nc1ccccc1)SCc1ccccc1" ? > 100 µM

How about "O=C(Nc1ccc(-c2nc3ccc(NC(=O)c4ccc(Cl)cc4)cc3[nH]2)cc1)c1ccc(Cl)cc1" ? 2.26 µM

How about Cc1ccc(NC(=O)CCC(=O)C(C#N)c2ccc(Cl)cc2)cc1C (stereo unspecified) ? > 100 µM

How about Clc1cccc(Cl)c1C1ON=C(c2ccccc2)N1C12CC3CC(CC(C3)C1)C2 (stereo unspecified) ? > 100 µM

How about C1CCN2CC34CC(CC5CCCN(C6CCCC3N6)C54)C2C1 (stereo unspecified) ? > 100 µM

###

# System: SR leukemia
# method-notes: NCI tumour cell line growth inhibition, 48 h; in the data active means GI50 below about 0.43 µM; inactive means the rest
Reply using exactly one outcome from Yes for active, No for inactive

State the result this test recorded for CCn1cc(C2NC(=O)c3cc(F)ccc3N2)c2cccc(Cl)c21 (configuration not stated) . Yes

How about "CCc1ccc(/C=C2/SC(=S)NC2=O)cc1" ? No

How about COc1cc(SC)ccc1C(=O)N1CCCC(C)C1 (configuration not stated) ? No

How about "COc1cc(C=NCC(=O)CSC(c2ccccc2)c2ccccc2)cc(OC)c1OC" ? No

How about "Fc1ccc(-c2c(-c3ccncc3)n(CCN3CCOCC3)c3cccnc23)cc1" ? No

How about "COCCOCCOCCOCCOc1ccc2c(c1)C(=O)c1nc3ncccc3c(=O)n1-2" ? No

How about "CC1=CC(=O)c2[nH]c3ccccc3c2C1=O" ? No

How about "CN1C=CN(Cc2ccc(-c3ccccn3)nc2)[CH-]1.CN1C=CN(Cc2ccc(-c3ccccn3)nc2)[CH-]1.[Au+3]" ? Yes

How about "Cc1cc(I)cc(CN(C)CCCCN2CCCC2)c1O" ? No

How about "C/C(=N\n1c(N)c(C#N)c(-c2ccc(Cl)cc2)c(C#N)c1=O)c1cccnc1" ? No

How about "COc1cc(C(=O)c2c(-c3ccccc3)oc3ccccc23)cc(OC)c1O" ? Yes

How about "NC(=O)c1ccc(-c2c3ccccc3cc3c2ccc2ccccc23)cc1" ? No

###

# System: SR leukemia
# method-notes: NCI tumour cell line growth inhibition, 48 h
endpoint: TGI

Request the reported TGI associated with "Cc1ccc(C)c(NC(=O)CCc2n[nH]c(=S)o2)c1" > 100 µM

How about "Cc1nc2ccccc2n1CCc1nc2ccccc2[nH]1" ? > 100 µM

How about "C[P+](C)(CC(F)(F)F)c1ccccc1" ? > 100 µM

How about "NC(=O)Cn1c(=O)[nH]c(=O)c2[nH]cnc21" ? > 100 µM

How about N#CC(/C(=N\NC(N)=S)C(=O)NC1C2CC3CC(C2)CC1C3)c1ccc(Cl)cc1 (configuration not stated) ? > 100 µM

How about "Cn1cc(/C=C2\C(=O)Nc3cccnc32)c2ccccc21" ? > 25 µM

How about "N#Cc1nc(Cc2cccs2)oc1N" ? > 100 µM

How about "O=C(O)CCN1C(=O)/C(=C/C(Cl)=C/c2ccccc2)SC1=S" ? 5.47 µM

How about "CCOC(=O)c1c(C)n(CCN2CCN(C)CC2)c2ccc(OC)cc12" ? 46.3 µM

How about Nc1ncnc2c(C3OC(CO)C(O)C3O)c[nH]c12 (configuration not stated) ? 0.272 µM

How about "CCOc1ccc(N2C(N)=NC(N)=NC2(C)C)cc1" ? > 100 µM

How about COc1ccc(C2CC(C)=Nc3c([nH]c(=S)[nH]c3=O)N2)cc1 (configuration not stated) ? 65 µM

###

Please go through the items and note down their TGI.
# System: MALME-3M melanoma
# method-notes: NCI tumour cell line growth inhibition, 48 h

Request the reported TGI associated with Cc1cn(C2CC(O)C(Cn3cc(Cn4nc(Br)c(=O)[nH]c4=O)nn3)O2)c(=O)[nH]c1=O (centres undefined) > 100 µM

How about "C=C1C(=O)O[C@H]2[C@H](OC(C)=O)[C@@H](C)CCC/C(C)=C/CC[C@]3(CO3)[C@H](O)C[C@@H]12" ? 12.3 µM

How about "COc1cc2c(cc1OCc1ccccc1)NC(=O)[C@@H]1C[C@@H](O)CN1C2=O" ? > 100 µM

How about "CC(C)c1cc2c(O)c(c1)Cc1cc(C(C)C)cc(c1O)Cc1cc(C(C)C)cc(c1O)Cc1cc(C(C)C)cc(c1O)Cc1cc(C(C)C)cc(c1O)Cc1cc(C(C)C)cc(c1O)C2" ? > 100 µM

###

# Tested on: HCT-15 colon
# method-notes: NCI tumour cell line growth inhibition, 48 h
endpoint: TGI

Entry S=C1OC2C3C4CC5C3C(O1)C1C5C4C21 (stereo not given) , system HCT-15 colon: what TGI was measured? > 100 µM

How about COc1ccccc1OCC(O)CO (stereo not given) ? > 100 µM

How about "COc1ccc(-c2nc(N)nc(-c3cc(C)ccc3O)c2Cl)cc1" ? > 100 µM

How about "O=C(O)CCN1C(=O)/C(=C/C(Cl)=C/c2ccccc2)SC1=S" ? 6.82 µM

How about "Cc1ccc(Nc2ccnc(Nc3cccc(C(N)=O)c3)n2)cc1O" ? > 25 µM

###

Please go through the items and note down their GI50.
# Test system: DU-145 prostate
# method-notes: NCI tumour cell line growth inhibition, 48 h

Request the reported GI50 associated with CC(=O)OCC1OC(O[C@@H]2C[C@H]3C(C)(C)[C@H](OC(C)=O)CC[C@]3(C)[C@H]3CC[C@@H]4[C@]5(CC[C@@]4(C)[C@@]32C)O[C@@H]([C@H](O)C(C)(C)O)C[C@@H]5C)C(O)C(O)C1O (stereo partly drawn) 10.6 µM

How about "COCCn1cc(-c2csc(-c3c[nH]c4ccc(F)cc34)n2)c2cccnc21" ? 18.8 µM

How about "O=c1c2c(=NCCCN3CCCC3)cc3c(=O)n(CCCN4CCCC4)c(=O)c4c(NCCCN5CCCC5)cc(c(O)n1CCCN1CCCC1)c2c4-3" ? 2.96 µM

How about "Nc1ccccc1C#Cc1ccccc1C#CCCCCO" ? 28.2 µM

How about "NC(=O)c1ccc(-c2c3ccccc3cc3c2ccc2ccccc23)cc1" ? 4.4 µM

How about "C/C(=N\n1c(N)c(C#N)c(-c2ccc(Cl)cc2)c(C#N)c1=O)c1cccnc1" ? > 100 µM

How about "CCc1ccc(/C=C2/SC(=S)NC2=O)cc1" ? 38.6 µM

How about "COCCOCCOCCOCCOc1ccc2c(c1)C(=O)c1nc3ncccc3c(=O)n1-2" ? 0.54 µM

How about "CN(C)c1ccc(/C=N/Nc2ccc(-c3nc4ccccc4[nH]3)cc2)cc1" ? 37.8 µM

How about "C[C@@H]1CC[C@H]2C(CN3CCN(CC4=C(C(F)(F)F)O[C@@H]5O[C@@]6(C)CC[C@H]7[C@H](C)CC[C@@H]4[C@@]57OO6)CC3)=C(C(F)(F)F)O[C@@H]3O[C@@]4(C)CC[C@@H]1[C@]32OO4" ? 16.9 µM

How about "O=C(O)c1c(Cl)c(Cl)c(Cl)c(Cl)c1-c1c2cc(I)c(=O)c(I)c-2oc2c(I)c(O)c(I)cc12" ? 37.2 µM

How about "COc1cc(Nc2ncc(-c3ccccc3)o2)cc(OC)c1OC" ? 5.98 µM

How about "CC(C)=CCC[C@](C)(O)[C@H]1CC[C@]2(C)[C@@H]1CC[C@@H]1[C@@]3(C)CC[C@H](OC(=O)CCC(=O)O)C(C)(C)[C@@H]3CC[C@]12C" ? 27.5 µM

###

Please go through the items and note down their GI50.
# System: MDA-MB-231 breast
# method-notes: NCI tumour cell line growth inhibition, 48 h

Entry "COCCOC(=O)CCn1cc(F)c(=O)[nH]c1=O" , system MDA-MB-231 breast: what GI50 was measured? > 150 µg/mL

How about "O=C(/C=C/c1cccs1)Nc1ncc(Cc2ccccc2F)s1" ? 0.611 µM

How about "Fc1ccc(-c2c(-c3ccncc3)n(CCN3CCOCC3)c3cccnc23)cc1" ? > 25 µM

How about "COc1cc(C=NCC(=O)CSC(c2ccccc2)c2ccccc2)cc(OC)c1OC" ? 18.1 µM

How about "ClCc1ccc(Cn2cnc3ncnc(Cl)c32)cc1" ? 1.76 µM

How about "Cn1cc(/C=C2\C(=O)Nc3cccnc32)c2ccccc21" ? 11.1 µM

How about "Nc1ccccc1C#Cc1ccccc1C#CCCCCO" ? 16.2 µM

How about "Cc1ccc(Nc2ccnc(Nc3cccc(C(N)=O)c3)n2)cc1O" ? 4.27 µM

How about "COc1cc(Nc2ncc(-c3ccccc3)o2)cc(OC)c1OC" ? 2.5 µM

How about COc1cc(SC)ccc1C(=O)N1CCCC(C)C1 (configuration not stated) ? > 100 µM

How about "C=C1C(=O)O[C@H]2[C@H](OC(C)=O)[C@@H](C)CCC/C(C)=C/CC[C@]3(CO3)[C@H](O)C[C@@H]12" ? 5.25 µM

How about "CCOc1ccc(N2C(N)=NC(N)=NC2(C)C)cc1" ? > 100 µM
